# System: H9c2 cardiomyocytes
# method: Cell viability assay (MTT)
# Assay type: cell-based, rat
# condition_details: H9c2, 24 h, 100.0 µM
In this section we review reported cell viability values for a set of compounds.
quantity_measured: cell viability

[[record]]
compound = "COC1=C(c2c[nH]c3ccccc23)C(=O)C(CC=C(C)C)=C(c2c[nH]c3ccccc23)C1=O"
result = "30.9 ± 2.9 % of control"

[[record]]
compound = "C=C(C)C1CCC23C(O)CCC(C)C2(C)CCC(C)C3C1c1c[nH]c2ccccc12 (stereo not drawn) [Compound 5, 10,23-dihydro-24,25-dehydroaflavinine]"
result = "33.6 ± 0.3 % of control"

[[record]]
compound = "COc1c(OC)c(-c2c[nH]c3ccccc23)c(OC)c(OC)c1-c1c[nH]c2ccccc12"
result = "59.0 ± 5.3 % of control"

